These measurements were taken from ChEMBL document CHEMBL2218924.

Biological target: CDK9/cyclin T1 (Homo sapiens) (UniProt O60563+P50750)
Conditions: at 10 µM
Threshold-based label: residual activity under 50% gives rule met, residual activity not under 50% gives rule not met.

**Query** Hi there! Is residual activity for O=[N+]([O-])/C=C/c1ccc2c(c1)OCO2 below 50%, do you know?
**Result** rule not met

**Query** Hi there! Is residual activity for CC(C)[C@H](CO)Nc1nc(Nc2cccc(Cl)c2)c2ncn(C(C)C)c2n1 below 50%, do you know?
**Result** rule met

**Query** Hi there! Is residual activity for COc1cc(OC)c(/C=C2\C(=O)Nc3ccccc32)c(OC)c1 below 50%, do you know?
**Result** rule met

**Query** Hi there! Is residual activity for O=C1NC(=O)c2c1c1c3ccccc3n3c1c1c2c2ccccc2n1C1CCC3O1 below 50%, do you know?
**Result** rule not met

**Query** Hi there! Is residual activity for CCn1cnc2c(Nc3cccc(Cl)c3)nc(N[C@@H]3CCCC[C@@H]3N)nc21 below 50%, do you know?
**Result** rule met

**Query** Hi there! Is residual activity for COc1ccc2c(c1)/C(=C/c1cnc[nH]1)C(=O)N2 below 50%, do you know?
**Result** rule met

**Query** Hi there! Is residual activity for O=c1[nH]c2ccccc2n1C1CCN(Cc2ccc(-c3nc4cc5[nH]cnc5cc4nc3-c3ccccc3)cc2)CC1 below 50%, do you know?
**Result** rule not met

**Query** Hi there! Is residual activity for COC(=O)[C@@]1(O)C[C@H]2O[C@]1(C)n1c3ccccc3c3c4c(c5c6ccccc6n2c5c31)C(=O)NC4 below 50%, do you know?
**Result** rule met

**Query** Hi there! Is residual activity for C[S+]([O-])c1ccc(-c2nc(-c3ccc(F)cc3)c(-c3ccncc3)[nH]2)cc1 (centres undefined) below 50%, do you know?
**Result** rule not met

====

Molecular target: Serine/threonine-protein kinase Nek3 (Homo sapiens) (UniProt P51956)
Sequence (P51956 whole entry): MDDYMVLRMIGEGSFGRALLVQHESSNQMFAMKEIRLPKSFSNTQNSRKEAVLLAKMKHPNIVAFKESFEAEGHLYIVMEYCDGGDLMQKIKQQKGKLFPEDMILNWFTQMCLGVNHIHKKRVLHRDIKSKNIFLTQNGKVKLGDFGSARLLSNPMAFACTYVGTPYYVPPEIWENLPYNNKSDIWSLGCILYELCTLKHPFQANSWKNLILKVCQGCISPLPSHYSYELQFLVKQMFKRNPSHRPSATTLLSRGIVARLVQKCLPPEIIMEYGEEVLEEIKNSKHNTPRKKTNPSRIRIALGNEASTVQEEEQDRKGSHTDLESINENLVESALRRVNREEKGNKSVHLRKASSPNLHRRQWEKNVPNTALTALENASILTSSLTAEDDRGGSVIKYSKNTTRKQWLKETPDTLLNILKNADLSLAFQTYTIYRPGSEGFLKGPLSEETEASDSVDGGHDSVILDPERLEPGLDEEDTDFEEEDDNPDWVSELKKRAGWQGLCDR
Conditions: at 10 µM
Description: Millipore: Percentage of residual kinase activity of NEK3 at 10uM relative to control. Control inhibitor: Phosphoric acid* at 0.3uM. Buffer: 8 mM MOPS pH 7.0, 0.2 mM EDTA
Please go through the items and note down their residual activity.
Response body: numeric value in %, unit text excluded.

Lookup result for CC(C)[C@H](CO)Nc1nc(Nc2cccc(Cl)c2)c2ncn(C(C)C)c2n1 ; measured residual activity: 89

Lookup result for N/C(=N\[N+](=O)[O-])N/N=C\c1ccc(-c2cccc([N+](=O)[O-])c2)o1 ; measured residual activity: 93

Lookup result for COc1ccc2c(c[n+](C)c3c4cc5c(cc4ccc23)OCO5)c1OC ; measured residual activity: 60

Lookup result for COC(=O)[C@@]1(O)C[C@H]2O[C@]1(C)n1c3ccccc3c3c4c(c5c6ccccc6n2c5c31)C(=O)NC4 ; measured residual activity: 53

Lookup result for CCn1cnc2c(Nc3cccc(Cl)c3)nc(N[C@@H]3CCCC[C@@H]3N)nc21 ; measured residual activity: 81

====

Target: Tyrosine-protein kinase Fyn (Homo sapiens)
Conditions: at 10 µM
Please go through the items and note down their residual activity.
Response body: numeric value in %, unit text excluded.

Lookup result for CC(C)(C)c1cc(C=C(C#N)C#N)cc(Br)c1O ; measured residual activity: 15

Lookup result for CCn1cnc2c(Nc3cccc(Cl)c3)nc(N[C@@H]3CCCC[C@@H]3N)nc21 ; measured residual activity: 0

Lookup result for O=C1Nc2ccc3ncsc3c2/C1=C/c1c[nH]cn1 ; measured residual activity: 12

Lookup result for O=C1NC(=O)c2c1c1c3ccccc3n3c1c1c2c2ccccc2n1C1CCC3O1 ; measured residual activity: 75
